Target Under Test: T1, human LAG3 of the LAG3 and MHC II binding assay kit (Cisbio, 64ICP03PEG) (human, UniProt P18627 23-450, limits assumed)
T1 construct: Bought kit reagent
T1 sequence (looked up): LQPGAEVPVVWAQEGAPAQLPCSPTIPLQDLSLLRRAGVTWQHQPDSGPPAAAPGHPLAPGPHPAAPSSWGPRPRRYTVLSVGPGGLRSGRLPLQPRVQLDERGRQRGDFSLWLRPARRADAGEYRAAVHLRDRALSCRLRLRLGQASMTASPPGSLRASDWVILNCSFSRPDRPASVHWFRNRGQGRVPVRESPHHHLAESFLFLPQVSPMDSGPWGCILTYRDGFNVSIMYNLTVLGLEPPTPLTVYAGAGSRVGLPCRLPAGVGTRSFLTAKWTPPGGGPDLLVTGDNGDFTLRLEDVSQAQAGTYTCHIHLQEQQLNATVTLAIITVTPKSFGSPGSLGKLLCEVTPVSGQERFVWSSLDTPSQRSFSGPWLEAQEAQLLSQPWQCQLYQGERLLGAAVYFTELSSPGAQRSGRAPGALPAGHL
Test Name: TR-FRET LAG3/MHC II binding assay (Cisbio); blocks MHC II
Recorded pIC50 for the following binders
On this scale, pIC50 is minus log10 of a concentration expressed in M (mol/L).

Binder	Value Reported
147H 3808 (antibody, V domains shown) VH: EVQLVQSGAEVKKPGASVKVSCKASGYTFTNYWLGWIKQAPGQGLEWIGDIYPGGDYIVYNEKFKGKATLTADTSISTAYMELSRLRSDDTAVYYCARPNLPKDHWGQGTTVTVSS VL: DIVMTQSPLSLPVTPGEPASISCRSSKSLLHSNAITYLYWYLQKPGQSPQLLIYQVSNLASGVPDRFSGSGSGTDFTLKISRVEAEDVGVYYCGQYLELPWTFGGGTKVEIK	9.30
147H 3668 (antibody, V domains shown) VH: EVQLVQSGAEVKKPGASVKVSCKASGYTFTNYWLGWIKQAPGQGLEWIGDIYPGGDYIVYNEKFKGKATLTADTSISTAYMELSRLRSDDTAVYYCARPNLPGDYWGQGTTVTVSS VL: DIVMTQSPLSLPVTPGEPASISCRSSKSLLHSNAITYLYWYLQKPGQSPQLLIYQVSNLATGVPDRFSGSGSGTDFTLKISRVEAEDVGVYYCAQNLELPWTFGGGTKVEIK	9.05
147H 3810 (antibody, V domains shown, also called B3810) VH: EVQLVQSGAEVKKPGASVKVSCKASGYLFTNYWLGWIKQAPGQGLEWIGDIYPGGDYIVYNEKFKGKATLTADTSISTAYMELSRLRSDDTAVYYCARPNLPKDHWGQGTTVTVSS VL: DIVMTQSPLSLPVTPGEPASISCRSSKSLLHSNAITYLYWYLQKPGQSPQLLIYQVSNLATGVPDRFSGSGSGTDFTLKISRVEAEDVGVYYCAQYLELPWTFGGGTKVEIK	9.20
147H 3549 (antibody, V domains shown) VH: EVQLVQSGAEVKKPGASVKVSCKASGYTFTNYWLGWIKQAPGQGLEWIGDIYPGGDYINYNEKFKGKATLTADTSISTAYMELSRLRSDDTAVYYCARPNLPKDHWGQGTTVTVSS VL: DIVMTQSPLSLPVTPGEPASISCRSSKSLLHSNAITYLYWYLQKPGQSPQLLIYQVSNLASGVPDRFSGSGSGTDFTLKISRVEAEDVGVYYCAQYLEEPWTFGGGTKVEIK	9.36
147H 3794 (antibody, V domains shown) VH: EVQLVQSGAEVKKPGASVKVSCKASGYLFTNYWLGWIKQAPGQGLEWIGDIYPGGDYIVYNEKFKGKATLTADTSISTAYMELSRLRSDDTAVYYCARPNLPGDYWGQGTTVTVSS VL: DIVMTQSPLSLPVTPGEPASISCRSSKSLLHSNAITYLYWYLQKPGQSPQLLIYQVSNLASGVPDRFSGSGSGTDFTLKISRVEAEDVGVYYCAQYLELPWTFGGGTKVEIK	9.20
147H 3669 (antibody, V domains shown) VH: EVQLVQSGAEVKKPGASVKVSCKASGYLFTNYWLGWIKQAPGQGLEWIGDIYPGGDYIVYNEKFKGKATLTADTSISTAYMELSRLRSDDTAVYYCARPNLPGDYWGQGTTVTVSS VL: DIVMTQSPLSLPVTPGEPASISCRSSKSLLHSNAITYLYWYLQKPGQSPQLLIYQVSNLASGVPDRFSGSGSGTDFTLKISRVEAEDVGVYYCAQNLELPWTFGGGTKVEIK	8.92

Now let's try a different one.
Enquiry: Write down pIC50 measured for item 147H 3663 (antibody, V domains shown) VH: EVQLVQSGAEVKKPGASVKVSCKASGYTFENYWLGWIKQAPGQGLEWIGDIYPGGDYIVYNEKFKGKATLTADTSISTAYMELSRLRSDDTAVYYCARPNLPGDYWGQGTTVTVSS VL: DIVMTQSPLSLPVTPGEPASISCRSSKSLLHSNAITYLYWYLQKPGQSPQLLIYQVSNLARGVPDRFSGSGSGTDFTLKISRVEAEDVGVYYCAQNLELPWTFGGGTKVEIK
Return: 8.57
